Data credit: ChEMBL document CHEMBL4834402

TARGET_OR_TEST_SYSTEM: SUMO-activating enzyme (Homo sapiens, UniProt Q9UBT2)
Sequence (Q9UBE0 whole entry): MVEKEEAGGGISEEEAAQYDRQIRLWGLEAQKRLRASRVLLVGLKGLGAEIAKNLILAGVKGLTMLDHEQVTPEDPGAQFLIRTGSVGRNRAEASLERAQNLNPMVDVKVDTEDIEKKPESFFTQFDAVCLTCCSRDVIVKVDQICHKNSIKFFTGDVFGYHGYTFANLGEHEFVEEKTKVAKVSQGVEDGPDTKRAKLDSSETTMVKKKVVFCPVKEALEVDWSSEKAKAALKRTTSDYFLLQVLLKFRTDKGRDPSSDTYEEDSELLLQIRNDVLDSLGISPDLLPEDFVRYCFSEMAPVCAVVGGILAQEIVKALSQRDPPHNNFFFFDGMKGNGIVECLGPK
Sequence (Q9UBT2 whole entry): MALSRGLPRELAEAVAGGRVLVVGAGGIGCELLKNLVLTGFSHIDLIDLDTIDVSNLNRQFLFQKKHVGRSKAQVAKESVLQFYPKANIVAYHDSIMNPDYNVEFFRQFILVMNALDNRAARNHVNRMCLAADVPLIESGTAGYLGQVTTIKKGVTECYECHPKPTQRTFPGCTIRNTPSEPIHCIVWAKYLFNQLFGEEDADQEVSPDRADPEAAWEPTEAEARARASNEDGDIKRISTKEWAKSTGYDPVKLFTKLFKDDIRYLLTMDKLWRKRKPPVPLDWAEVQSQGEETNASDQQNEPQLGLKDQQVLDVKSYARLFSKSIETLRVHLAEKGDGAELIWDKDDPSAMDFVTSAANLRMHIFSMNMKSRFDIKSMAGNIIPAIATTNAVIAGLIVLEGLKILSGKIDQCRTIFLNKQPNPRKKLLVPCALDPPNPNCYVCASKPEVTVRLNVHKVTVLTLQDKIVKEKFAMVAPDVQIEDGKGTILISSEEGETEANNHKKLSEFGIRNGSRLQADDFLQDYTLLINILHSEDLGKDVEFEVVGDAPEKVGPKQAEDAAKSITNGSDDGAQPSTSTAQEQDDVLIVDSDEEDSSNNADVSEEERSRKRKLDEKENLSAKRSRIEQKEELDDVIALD
EXPERIMENT_NOTES: Inhibition of SAE in human HCT116 cells assessed as redistribution of SUMO2/3 proteins from nucleus to cytosol preincubated for 2 hrs followed by compound washout and measured after 8 hrs by immunofluorescence assay
Type: cell-based, HCT-116
pIC50: −log10 of the molar value.
Hi, to clarify the labels: satisfied covers pIC50 from 7 upward, not satisfied covers anything below 7.

// inclusive: pIC50 at least 7? input: NS(=O)(=O)OC[C@H]1C[C@@H](Nc2ncncc2C(=O)c2cc(C3OCCc4ccc(Cl)cc43)cs2)C[C@@H]1O (some centres not stated)
satisfied

Given CC(O)(c1cccc(Cl)c1)c1csc(C(=O)c2cncnc2N[C@@H]2C[C@H](COS(N)(=O)=O)[C@@H](O)C2)c1 (some centres not stated) , state whether its pIC50 is at least 7.
not satisfied

Entry NS(=O)(=O)OC[C@H]1C[C@@H](Nc2ncncc2C(=O)c2cc(Cc3cccc(Cl)c3)c(Cl)s2)C[C@@H]1O : is its pIC50 no less than 7?
not satisfied

I'd appreciate it if you could say whether Cc1sc(C(=O)c2cncnc2N[C@@H]2C[C@H](COS(N)(=O)=O)[C@@H](O)C2)cc1C(O)c1cccc(Cl)c1 (some centres not stated) has pIC50 at least equal to 7.
satisfied

Confirm if pIC50 reported for the compound NC(c1cccc(Cl)c1)c1cc(C(=O)c2cncnc2N[C@@H]2C[C@H](COS(N)(=O)=O)[C@@H](O)C2)sc1Cl (some centres not stated) is 7 or above.
satisfied
